# Test system: SK-OV-3
# Protocol: Antitumor activity against human SK-OV-3 cells assessed as reduction in cell viability incubated for 72 hrs by CCK8 assay
# Type: functional, cell-based
# Experimental context: SK-OV-3, 72 h
Outcome measure: log10(IC50) (log10 of the value in nM)
The figures below represent log10 of IC50, where IC50 is stated in nM.

The following compounds have reported results that may help.
- Compound: "COc1ccc2c(c1)CCCN2c1nc(Cl)nc2ccc(OC)cc12"
  Reported result: 1.76
- Compound: "COc1cc2c(c(OC)c1OC)-c1ccc(OC)c(=O)cc1[C@@H](NC(C)=O)CC2 [COLCHICINE]"
  Reported result: 0.80
- Compound: "COc1ccc2c(c1)CCCN2c1nc(NC2CCC2)nc2ccc(F)cc12"
  Reported result: 1.50
- Compound: "COc1ccc2c(c1)CCCN2c1nc(Cl)nc2ccc(C)cc12"
  Reported result: 1.58
- Compound: "CNc1nc(N2CCCc3cc(OC)ccc32)c2cc(F)ccc2n1"
  Reported result: -0.10

Q. Any idea what log10(IC50) was measured for COCCNc1nc(N2CCCc3cc(OC)ccc32)c2cc(F)ccc2n1 ?
A. 0.53

Q. Now consider COc1ccc2c(c1)CCCN2c1nc(NCC(C)C)nc2ccc(F)cc12 and answer again.
A. 2.20

Q. Now consider COc1ccc2c(c1)CCCN2c1nc(Cl)nc2ccc(I)cc12 and answer again.
A. 2.20
